- Test system: WT Max(13-93) synthetic (M65Nle)
- assay.method.text: PBM 8-mer E-score (E-score (rank enrichment, -0.5 to 0.5)); higher = stronger preferential binding
Over roughly 33,000 sequences, “E-score (rank enrichment, -0.5 to 0.5)” has its median near -0.0075; the highest 2% begin near 0.23. What follows is part of a selection rich in the highest values, with near analogues and random picks from the rest.
Classes are defined on PBM 8-mer E-score with ranges lower segment (below -0.02), middle segment (-0.02 to below 0.09), upper segment (0.09 or more)

>>> class("CCAGAATA")
"lower segment"
>>> class("CCTCCCCA")
"upper segment"
>>> class("CTCGTTCC")
"lower segment"
>>> class("ACCGCGTA")
"middle segment"
>>> class("ATTCGATA")
"upper segment"
>>> class("CCTGCCGC")
"lower segment"
>>> class("TACGTATA")
"upper segment"
>>> class("AGCCCGTC")
"lower segment"
>>> class("GAAAGCCA")
"middle segment"
>>> class("ACCGCGTC")
"lower segment"
>>> class("ACGCACAT")
"upper segment"
>>> class("ATTCAACA")
"upper segment"
>>> class("ACAGCGTC")
"middle segment"
>>> class("AGTAAACG")
"middle segment"
>>> class("CCTCCCCC")
"lower segment"
>>> class("AGCTTCAA")
"upper segment"

###

- Test system: WT Max(13-93) synthetic (M65Nle)
- assay.method.text: PBM 8-mer E-score (E-score (rank enrichment, -0.5 to 0.5)); higher = stronger preferential binding
The full ranking holds about 33,000 sequences; the median of “E-score (rank enrichment, -0.5 to 0.5)” is about -0.0075, and the highest 2% start at about 0.23. This is one part of a sample in which the highest values are shown more often than they occur.
Reported PBM 8-mer E-score is given for each of the following sequences.
measurement.type: PBM 8-mer E-score

>>> assay_result("ATCGCGCA")
-0.034
>>> assay_result("CGAACTTC")
-0.102
>>> assay_result("AAAAAGGC")
0.109
>>> assay_result("AATGCGCC")
-0.0607
>>> assay_result("CAAATCAA")
0.245
>>> assay_result("GAAAACAC")
0.0469
>>> assay_result("GAATAACA")
0.242
>>> assay_result("CCATAACG")
-0.0417
>>> assay_result("TCATGCGA")
0.034
>>> assay_result("CCAAACAC")
0.242
>>> assay_result("CCGTAGCC")
-0.216
>>> assay_result("GAGATCAA")
0.0454
>>> assay_result("CCGTGCAG")
-0.0417
>>> assay_result("CTCAACAC")
0.202
>>> assay_result("CCAAACAG")
-0.0488
>>> assay_result("ATAGTCTC")
0.0149
>>> assay_result("CATAGGTA")
0.00152
>>> assay_result("ACGTGCAG")
0.325
>>> assay_result("CACCACTA")
0.129
>>> assay_result("ATTAGACG")
0.136
>>> assay_result("ATTTCGTC")
0.242
>>> assay_result("AGCCTGGA")
-0.148

###

- System: WT Max(13-93) synthetic (M65Nle)
- assay.method.text: PBM 8-mer E-score (E-score (rank enrichment, -0.5 to 0.5)); higher = stronger preferential binding
The full ranking holds about 33,000 sequences; the median of “E-score (rank enrichment, -0.5 to 0.5)” is about -0.0075, and the highest 2% start at about 0.23. Only a selection was taken, and the highest values are over-represented in it overall.
Categorize each record by its PBM 8-mer E-score using band 1: < -0.01; band 2: ≥ -0.01 and < 0.2; band 3: ≥ 0.2

>>> class("AATGCAAC")
"band 2"
>>> class("AGTAGTTC")
"band 1"
>>> class("AATCGCCG")
"band 1"
>>> class("ATGTGTAG")
"band 3"
>>> class("TAGGTAAA")
"band 1"
>>> class("TGGACGAA")
"band 2"
>>> class("AATACAAT")
"band 2"
>>> class("ATCGTGAC")
"band 1"
>>> class("GATACAAA")
"band 2"
>>> class("ACAATACC")
"band 3"
>>> class("AAACACAT")
"band 3"
>>> class("ACGCTACT")
"band 1"
>>> class("AAACACAG")
"band 2"
>>> class("AAACACGC")
"band 3"
>>> class("ACAATACT")
"band 2"
>>> class("AATACAAC")
"band 3"
>>> class("CAAAAAGC")
"band 1"
>>> class("AAGTGTAG")
"band 2"
>>> class("CGAGCTGC")
"band 1"
>>> class("AACGACGA")
"band 1"
>>> class("GAACACGC")
"band 2"
>>> class("GTGTGTAA")
"band 2"
